System: MOLT-4
protocol.details: NCI tumour cell line growth inhibition, 48 h
Activity calls are given as the source filed them. Rule as the data show it: active = GI50 up to about 1.1 µM and inactive = higher.
Classes used: True (active), False (inactive)

compound	class.name
C=C1C[C@H]2C=Nc3cc(OCCCOc4cc5c(cc4OC)C(=O)N4CC(=C)C[C@H]4C=N5)c(OC)cc3C(=O)N2C1 [SJG-136]	True
O=C(CSc1nc2ccc([N+](=O)[O-])cc2s1)c1ccc2ccccc2c1	False
CCOC(=O)[C@H](O)[C@@H](O)C(=O)NCc1ccc(C(=O)c2ccccc2)cc1	False
O=[N+]([O-])C(C(Cl)=C(Cl)Cl)=C(n1nnc2ccccc21)n1nnc2ccccc21	False
O=C(NN1C(=O)CSC1c1ccc(Cl)c(Cl)c1)c1ccncc1 (stereo not drawn)	False
Cc1cc(Cl)ccc1NC(=O)CCCC(=O)C(C(=O)c1ccccc1)c1ccccc1 (stereo not drawn)	False
Nn1c(=O)n(Cc2ccccc2)n(-c2ccccc2)c1=O	False
O=CC(=C(I)I)c1ccccc1	True
CC1=NN(C(=O)c2ccccc2O)C(=O)/C1=C/c1ccccc1O	True
O=C(N/C(=C\c1ccccc1)c1nc2ccccc2c(=O)o1)c1ccccc1	False
CN(C)C(=O)O/N=C1/C(=C2/C(=O)Nc3ccccc32)Nc2ccccc21	False
CC1=CC(=O)N(n2c(C)n[nH]c2=O)C1=O	False
COc1ccc(CN2C(=O)C(Cc3cc(OC)c(OC)c(C)c3OC)NC(=O)/C2=C/c2cc(OC)c(OC)c(C)c2OC)cc1 (stereo not drawn)	False
